Test system: barnyardgrass (Echinochloa crus-galli)
Assay: Test C pre-/postemergence: barnyardgrass
Type: in vivo
Details: Preemergence, 250 g ai/ha; scale 0 to 100, 0 no effect, 100 complete control
Source text: […] Treated plants and controls were maintained in a greenhouse for 13 to 15 days, after which time all species were compared to controls and visually evaluated. […]
Quick list: Plant response rating, Barnyardgrass per entry.
Attribute Measured: Plant response rating, Barnyardgrass

>>> readout_value("CCCc1nn(-c2ccc(F)cc2)nc1Oc1ccnc(C(F)(F)F)c1 [Compound 168]")
100
>>> readout_value("CCc1nn(-c2ccc(F)c(F)c2)nc1Oc1ccnc(C(F)(F)F)c1 [Compound 171]")
98
>>> readout_value("CCCc1nn(-c2ccc(F)c(F)c2)nc1Oc1ccnc(C(F)(F)F)c1 [Compound 172]")
100
>>> readout_value("CCc1nn(-c2ccc(C(F)(F)F)cc2)nc1Oc1ccnc(C(F)(F)F)c1 [Compound 169]")
100

###

Tested on: ducksalad (Heteranthera limosa)
Assay: Test B flooded paddy: ducksalad
Assay type: in vivo
Conditions: Flood; 250 g ai/ha; applied to paddy water at 2-leaf stage; visually evaluated after 13 to 15 days
Experimental: Seeds selected from rice (Oryza sativa), sedge, umbrella (small-flower umbrella sedge Cyperus difformis), ducksalad (Heteranthera limosa), and barnyardgrass (Echinochloa crus-galli) were grown to the 2-leaf stage for testing. […] Treated plants and controls were maintained in a greenhouse for 13 to 15 days, after which time all species were compared to controls and visually evaluated. […]
Hi! Could you tag entries with Plant response rating, Ducksalad (0 to 100 scale, 0 is no effect, 100 is complete control) below 80 as 1.0, and those at or above as 0.0? Much appreciated.

>>> category_label("CCc1nn(-c2ccc(C(F)(F)F)cc2)nc1Oc1ccnc(C(F)(F)F)c1")
0.0
>>> category_label("Fc1ccc(-n2nc(Cc3ccnc(C(F)(F)F)c3)c(OC(F)F)n2)cc1")
0.0
>>> category_label("CON=C(c1cccc(C(F)(F)F)c1)c1nn(-c2ccnc(C(F)(F)F)c2)nc1C")
1.0
>>> category_label("CCc1nn(-c2ccc(F)c(F)c2)nc1Oc1ccnc(C(F)(F)F)c1")
1.0
>>> category_label("Cc1nn(-c2ccc(F)cc2F)nc1Oc1ccnc(C(F)(F)F)c1")
1.0
>>> category_label("CCCCc1nn(-c2ccc(C(F)(F)F)cc2)nc1Oc1ccnc(C(F)(F)F)c1")
1.0
>>> category_label("CC(=O)Oc1nn(-c2ccc(C(F)(F)F)cc2)nc1Cc1ccnc(C(F)(F)F)c1")
1.0
>>> category_label("COc1nn(-c2ccc(F)cc2)nc1C(=O)c1ccnc(C(F)(F)F)c1")
1.0
>>> category_label("Cc1nn(-c2ccc(F)c(F)c2)nc1Cc1ccnc(C(F)(F)F)c1")
0.0
>>> category_label("Cc1nn(-c2ccc(Br)cc2)nc1Oc1ccnc(C(F)(F)F)c1")
0.0

###

Tested on: corn (Zea mays)
Test: Test A pre-/postemergence: corn
Type: in vivo
Conditions: Preemergence, 125 g ai/ha; 0 to 100 scale where 0 is no effect and 100 is complete control
Quick list: Plant response rating, Corn per entry.
Attribute Measured: Plant response rating, Corn

>>> readout_value("CCOc1nn(-c2ccc(Cl)cc2)nc1Cc1ccnc(C(F)(F)F)c1 [Compound 188]")
10
>>> readout_value("Oc1nn(-c2ccc(C(F)(F)F)cc2)nc1Cc1ccnc(C(F)(F)F)c1 [Compound 198]")
0
>>> readout_value("CCOc1nn(-c2ccc(F)cc2)nc1C(=O)c1ccnc(C(F)(F)F)c1 [Compound 177]")
0
>>> readout_value("CCOc1nn(-c2ccc(F)cc2F)nc1Cc1ccnc(C(F)(F)F)c1 [Compound 190]")
30
>>> readout_value("CCc1nn(-c2ccc(F)c(F)c2)nc1Oc1ccnc(C(F)(F)F)c1 [Compound 171]")
10
>>> readout_value("CCc1nn(-c2ccc(F)cc2)nc1Cc1ccnc(C(F)(F)F)c1 [Compound 154]")
20
>>> readout_value("CCOCc1nn(-c2ccc(F)cc2)nc1Oc1ccnc(C(F)(F)F)c1 [Compound 163]")
0
>>> readout_value("FC(F)(F)c1cccc(-n2nc(Oc3ccnc(C(F)(F)F)c3)c(C3CC3)n2)c1 [Compound 199]")
0
>>> readout_value("COc1nn(-c2cccc(F)c2)nc1Cc1ccnc(C(F)(F)F)c1 [Compound 139]")
10

###

System: large crabgrass (Digitaria sanguinalis)
Test: Test C pre-/postemergence: large crabgrass
Format: in vivo
Conditions: Preemergence, 31 g ai/ha; scale of 0 to 100, 0 is no effect, 100 is complete control
Attribute Measured: Plant response rating, Crabgrass, Large

>>> readout_value("COc1nn(-c2cccc(F)c2)nc1Cc1ccnc(C(F)(F)F)c1")
100
>>> readout_value("CCOCc1nn(-c2ccc(F)cc2)nc1Oc1ccnc(C(F)(F)F)c1")
65
>>> readout_value("CCc1nn(-c2ccc(F)cc2)nc1Cc1ccnc(C(F)(F)F)c1")
90
>>> readout_value("FCc1nn(-c2ccc(F)cc2)nc1Oc1ccnc(C(F)(F)F)c1")
100

###

Tested on: pigweed (Amaranthus retroflexus)
Assay: Test C pre-/postemergence: pigweed
Type: in vivo
Settings: Preemergence, 62 g ai/ha; scale of 0 to 100, 0 is no effect, 100 is complete control
Attribute Measured: Plant response rating, Pigweed

>>> readout_value("FCc1nn(-c2ccc(F)cc2)nc1Oc1ccnc(C(F)(F)F)c1")
100
>>> readout_value("CCc1nn(-c2ccc(F)c(F)c2)nc1Oc1ccnc(C(F)(F)F)c1")
100
>>> readout_value("COc1nn(-c2ccc(C(F)(F)F)cc2)nc1Cc1ccnc(C(F)F)c1")
100
>>> readout_value("Fc1ccc(-n2nc(Cc3ccnc(C(F)(F)F)c3)c(OC(F)F)n2)cc1")
100
>>> readout_value("CCOc1nn(-c2ccc(Cl)cc2)nc1Cc1ccnc(C(F)(F)F)c1")
100
>>> readout_value("CCOCc1nn(-c2ccc(F)cc2)nc1Oc1ccnc(C(F)(F)F)c1")
98

###

System: nightshade (eastern black nightshade, Solanum ptycanthum)
Test: Test F pre-/postemergence: nightshade
Type: in vivo
Details: Preemergence, 16 g ai/ha; scale 0 to 100, 0 no effect, 100 complete control
Attribute Measured: Plant response rating, Nightshade

>>> readout_value("Cc1nn(-c2ccc(C(F)(F)F)c(F)c2)nc1Oc1ccnc(C(F)(F)F)c1")
0
>>> readout_value("COc1nn(-c2cccc(F)c2)nc1Cc1ccnc(C(F)(F)F)c1")
20
>>> readout_value("CCOc1nn(-c2ccc(F)cc2)nc1Cc1ccnc(C(F)(F)F)c1")
95
>>> readout_value("CCc1nn(-c2ccc(F)c(F)c2)nc1Oc1ccnc(C(F)(F)F)c1")
0

###

System: morningglory (Ipomoea coccinea)
Test: Test C pre-/postemergence: morningglory
Type: in vivo
Details: Postemergence, 62 g ai/ha; scale 0 to 100 (0 no effect, 100 complete control)
Quick list: Plant response rating, Morningglory per entry.
Attribute Measured: Plant response rating, Morningglory

>>> readout_value("Cc1nn(-c2ccc(C(F)(F)F)cn2)nc1Oc1ccnc(C(F)(F)F)c1")
70
>>> readout_value("Cc1nn(-c2ccc(C(F)(F)F)cn2)nc1Cc1cccc(C(F)(F)F)c1")
20
>>> readout_value("Cc1nn(-c2ccc(F)c(C(F)(F)F)c2)nc1Cc1ccnc(C(F)(F)F)c1")
70
>>> readout_value("Cc1nn(-c2ccc(C(F)(F)F)c(F)c2)nc1Oc1ccnc(C(F)(F)F)c1")
98
>>> readout_value("CCCc1nn(-c2ccc(F)cc2F)nc1Oc1ccnc(C(F)(F)F)c1")
80

###

Quick list: Plant response rating, Blackgrass per entry.
System: blackgrass (Alopecurus myosuroides)
Assay: Test C pre-/postemergence: blackgrass
Assay type: in vivo
Conditions: Postemergence, 62 g ai/ha; scale 0 to 100 (0 no effect, 100 complete control)
Attribute Measured: Plant response rating, Blackgrass

>>> readout_value("COc1nn(-c2cccc(F)c2)nc1Cc1ccnc(C(F)(F)F)c1")
40
>>> readout_value("CCCc1nn(-c2ccc(F)cc2F)nc1Oc1ccnc(C(F)(F)F)c1")
50
>>> readout_value("CCCc1nn(-c2ccc(F)c(F)c2)nc1Oc1ccnc(C(F)(F)F)c1")
25
>>> readout_value("CCc1nn(-c2ccc(C(F)(F)F)c(F)c2)nc1Oc1ccnc(C(F)(F)F)c1")
20
>>> readout_value("COc1nn(-c2ccc(C(F)(F)F)cc2)nc1Cc1ccnc(C(F)F)c1")
40
>>> readout_value("Cc1nn(-c2ccc(F)c(C(F)(F)F)c2)nc1Cc1ccnc(C(F)(F)F)c1")
60
>>> readout_value("Cc1nn(-c2ccc(C(F)(F)F)c(F)c2)nc1Oc1ccnc(C(F)(F)F)c1")
50

###

Quick list: Plant response rating, Velvetleaf per entry.
Tested on: velvetleaf (Abutilon theophrasti)
Assay: Test A pre-/postemergence: velvetleaf
Assay type: in vivo
Conditions: Preemergence, 125 g ai/ha; 0 to 100 scale where 0 is no effect and 100 is complete control
Attribute Measured: Plant response rating, Velvetleaf

>>> readout_value("Cc1nn(-c2ccc(F)c(F)c2)nc1Cc1ccnc(C(F)F)c1 [Compound 136]")
30
>>> readout_value("Cc1nn(-c2ccc(C(F)(F)F)cc2)nc1Oc1ccnc(C(F)(F)F)c1 [Compound 120]")
40
>>> readout_value("CON=C(c1cccc(C(F)(F)F)c1)c1nn(-c2ccnc(C(F)(F)F)c2)nc1C [Compound 140]")
20
>>> readout_value("CCc1nn(-c2ccc(C(F)(F)F)cc2)nc1Oc1ccnc(C(F)(F)F)c1 [Compound 169]")
50
>>> readout_value("CCCCOc1nn(-c2ccc(C(F)(F)F)cc2)nc1Cc1ccnc(C(F)(F)F)c1 [Compound 194]")
0
>>> readout_value("CCc1nn(-c2ccc(F)cc2F)nc1Oc1ccnc(C(F)F)c1 [Compound 181]")
0
>>> readout_value("CCOc1nn(-c2ccc(F)cc2)nc1C(=O)c1ccnc(C(F)(F)F)c1 [Compound 177]")
0
>>> readout_value("CCCOc1nn(-c2ccc(C(F)(F)F)cc2)nc1Cc1ccnc(C(F)(F)F)c1 [Compound 191]")
30
